Recorded values, source a melting point compilation (Tetko et al.).

Provide the recorded melting point for the entries that follow.

**Q:** Quick check: melting point of N#Cc1ccc(Cl)c(N)c1 ?
**A:** 87 to 91 °C

**Q:** Also, CCCc1nc2ccccc2c(C(=O)O)c1CC please.
**A:** 222 to 224 °C

**Q:** Also, Cc1c(N)cccc1NC(=O)c1ccccc1 please.
**A:** 193 to 195 °C

**Q:** Also, Cc1cc(Br)cn2c(C=O)cnc12 please.
**A:** 152 to 154 °C

**Q:** Also, COc1ccc(C(N)Cc2ccc(F)cc2)cc1 (centres undefined) please.
**A:** 47 to 49 °C

**Q:** Also, O=C(NC1CCN(Cc2ccccc2)CC1)c1cccc(F)c1 please.
**A:** 143 to 145 °C

**Q:** Also, C#CCN1CCNC1=O please.
**A:** 119 to 121 °C

**Q:** Also, O=C1CC(c2ccccc2)NCCN1 (centres undefined) please.
**A:** 102 to 104 °C

**Q:** Also, Cc1cn2c(C=O)c(C)nc2s1 please.
**A:** 153 to 155 °C

**Q:** Also, O=c1[nH]c(CCl)nc2c1oc1ccccc12 please.
**A:** 98 to 100 °C

**Q:** Also, O=C(NCCc1cccs1)C1Cc2ccccc2CN1 (centres undefined) please.
**A:** 86 to 88 °C

**Q:** Also, NS(=O)(=O)c1cccnc1Cl please.
**A:** 183 to 185 °C

**Q:** Also, NC(=O)C1CC(O)CN1 (centres undefined) please.
**A:** 117 to 119 °C

**Q:** Also, CCOc1ccc(CC(CN)C(N)=O)cc1 (centres undefined) please.
**A:** 116 to 118 °C

**Q:** Also, Cc1cc(C(=O)N2CCCCC2C)ccc1N (centres undefined) please.
**A:** 123 to 125 °C

**Q:** Also, Clc1ccc(-n2cccn2)cc1Cl please.
**A:** 59 to 61 °C

**Q:** Also, CC1Cc2ccccc2N1C(=O)C1CCCCC1C(=O)O (centres undefined) please.
**A:** 123 to 125 °C

**Q:** Also, CC(C)NC(CCO)C1CCCCC1 (centres undefined) please.
**A:** 35 to 37 °C

**Q:** Also, Cc1nc(Cl)c2c(-c3ccccc3)csc2n1 please.
**A:** 169 to 173 °C

**Q:** Also, NC(=NO)c1ccc(-c2ccccc2)cc1 please.
**A:** 182 to 184 °C

**Q:** Also, Nc1nonc1-c1ccccn1 please.
**A:** 124 to 126 °C

**Q:** Also, O=C(O)c1ccc2c(=O)n3c(nc2c1)CCCCC3 please.
**A:** 276 to 278 °C

**Q:** Also, O=C(O)c1cnc(Oc2ccccc2)cn1 please.
**A:** 134 to 136 °C

**Q:** Also, Cc1cc2oc(=O)cc(CCl)c2cc1Cl please.
**A:** 218 to 220 °C

**Q:** Also, CCOC(=O)c1ccc(-c2ccc(C=O)o2)cc1 please.
**A:** 110 to 112 °C

**Q:** Also, Cc1nccn1-c1cccc(F)n1 please.
**A:** 97 to 99 °C

**Q:** Also, O=C(O)c1c(O)cc(Cl)cc1Cl please.
**A:** 189 to 191 °C

**Q:** Also, Cc1ccnc(NC2CCCCC2)c1 please.
**A:** 75 to 77 °C

**Q:** Also, Cc1cc(NC(=O)CCl)no1 please.
**A:** 182 to 190 °C

**Q:** Also, CC(C)C(C(=O)O)N1CCCC1=O (centres undefined) please.
**A:** 130 to 132 °C

**Q:** Also, Cc1cc(C(=O)O)sc1-c1cccc(Cl)c1 please.
**A:** 178 to 180 °C

**Q:** Also, O=C1C=CC(=O)N1C1CCOCC1 please.
**A:** 169 to 171 °C

**Q:** Also, C=CCn1c(N)c(C#N)sc1=S please.
**A:** 174 to 176 °C

**Q:** Also, CCOC(=O)c1cnc2c(C)cc(Br)cc2c1Cl please.
**A:** 101 to 103 °C

----------
Provide the recorded melting point for the entries that follow.

**Q:** Quick check: melting point of CN(C)Cc1nc(Cl)c2c(-c3ccccc3)csc2n1 ?
**A:** 114 to 116 °C

**Q:** Also, CCCNc1ccc(CN2CCN(C)CC2)cn1 please.
**A:** 69 to 71 °C

**Q:** Also, O=C(O)CCc1nnc(C2CCCC2)o1 please.
**A:** 62 to 64 °C

**Q:** Also, O=C1NC(=O)C(F)(F)c2ccccc21 please.
**A:** 109 to 111 °C

----------
Provide the recorded melting point for the entries that follow.

**Q:** Quick check: melting point of Cc1oc(C(=O)O)cc1S(=O)(=O)N(C)C ?
**A:** 151 to 153 °C

**Q:** Also, CCOC(=O)c1cnn(-c2ccc(C(=O)O)cc2)c1C(F)(F)F please.
**A:** 175 to 177 °C

**Q:** Also, Cc1cc(Br)cc(Cl)c1C(=O)O please.
**A:** 154 to 156 °C

**Q:** Also, CC(O)C1CCNCC1 (centres undefined) please.
**A:** 68 to 70 °C

**Q:** Also, O=S1(=O)CCC(CO)CC1 please.
**A:** 86 to 88 °C

**Q:** Also, CCc1ccc(C(=O)O)cc1[N+](=O)[O-] please.
**A:** 158 to 160 °C

**Q:** Also, CC(=O)c1csc(C(=O)CCl)c1 please.
**A:** 124 to 126 °C

**Q:** Also, CC(C)C(NC(=O)c1ccncc1)C(=O)O (centres undefined) please.
**A:** 187 to 189 °C

**Q:** Also, O=C(O)C1CCCN(S(=O)(=O)c2ccc([N+](=O)[O-])cc2)C1 (centres undefined) please.
**A:** 221 to 223 °C

**Q:** Also, Nc1ccc(-c2nc3ccccc3o2)cc1 please.
**A:** 170 to 172 °C

**Q:** Also, Cn1cc(N2CCCC(Br)C2=O)cn1 (centres undefined) please.
**A:** 121 to 123 °C

**Q:** Also, ClCc1cn(-c2ccccc2)nc1-c1ccccc1 please.
**A:** 87 to 89 °C

**Q:** Also, NC(=S)CC(N)=S please.
**A:** 202 to 204 °C

**Q:** Also, CC(C)(C)OC(=O)Nc1csc(Br)n1 please.
**A:** 104 to 106 °C

**Q:** Also, O=CNc1ccc2c(c1)OCO2 please.
**A:** 96 to 98 °C

**Q:** Also, N#Cc1ccc(S(=O)(=O)Cl)c(F)c1 please.
**A:** 61 to 63 °C

**Q:** Also, Cc1cc(C)c2c(=O)[nH]sc2n1 please.
**A:** 195 to 197 °C

**Q:** Also, NC(=O)NCCCCC(=O)O please.
**A:** 178 to 180 °C

**Q:** Also, Cc1cc(=O)c(C(=O)O)n[nH]1 please.
**A:** 193 to 195 °C

----------
VALUE_KIND: melting point

**Q:** Quick check: melting point of CCN1CC(C(=O)O)CC1=O (configuration not stated) ?
**A:** 92 to 94 °C

**Q:** Also, Sc1nnc(-c2ccccc2Br)[nH]1 please.
**A:** 195 to 197 °C

**Q:** Also, Cc1[nH]oc(=N)c1-c1cccc(Cl)c1 please.
**A:** 148 to 150 °C

**Q:** Also, O=C(O)CCC(=O)c1ccc(F)c(F)c1 please.
**A:** 84 to 86 °C

**Q:** Also, Cc1cc(C(C)(C)C)cc(C)c1S(=O)(=O)N1CCNCC1 please.
**A:** 124 to 126 °C

**Q:** Also, O=C(O)C1(c2ccc3c(c2)OCCO3)CCCC1 please.
**A:** 165 to 167 °C

**Q:** Also, COC(=O)c1ccc(Cl)c(N)c1 please.
**A:** 81 to 83 °C

----------
Provide the recorded melting point for the entries that follow.

**Q:** Quick check: melting point of Cn1cc(CO)nn1 ?
**A:** 29 to 31 °C

**Q:** Also, Cc1nn(-c2ccc(Br)cc2)c(C)c1C=O please.
**A:** 142 to 144 °C

**Q:** Also, O=C(O)c1ccccc1SC(F)F please.
**A:** 114 to 116 °C

**Q:** Also, COc1ccc(S(=O)(=O)NC2CC2)cc1N please.
**A:** 119 to 121 °C

**Q:** Also, O=C(O)Cc1cccc(OC(F)F)c1 please.
**A:** 52 to 54 °C

**Q:** Also, CN(C)C(=O)c1ccc(Cl)cc1N please.
**A:** 65 to 67 °C

**Q:** Also, CC(C)CNC(=O)N1CCCC(C(=O)O)C1 (stereo not drawn) please.
**A:** 106 to 108 °C

**Q:** Also, CC1CC(C(=O)O)CC(=O)N1 (stereo not drawn) please.
**A:** 159 to 161 °C
